TARGET_SYSTEM: T1, human DR3-Fc fusion protein (human, UniProt Q93038 25-199)
T1 construct: also called hDR3-Fc; not shown: Fc portion
T1 sequence: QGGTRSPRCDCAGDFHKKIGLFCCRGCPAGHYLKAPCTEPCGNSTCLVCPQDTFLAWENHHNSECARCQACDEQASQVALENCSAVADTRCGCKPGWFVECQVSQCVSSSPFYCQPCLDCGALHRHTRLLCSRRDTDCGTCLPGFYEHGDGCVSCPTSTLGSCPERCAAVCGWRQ
PROTOCOL_NOTES: BIAcore SPR; human DR3-Fc amine-coupled to CM5 chip, Fab in flow; ratio of average Kd
EXPERIMENTAL_ENDPOINT: Ratio of binding relative to H0L0-Fab
Provide a numeric answer; units are not to be included.

• H4.2L2-Fab (Fab, V domains shown) VH: QVQLVQSGSELKKPGASVKVSCKASGFTFTNYAMSWVRQAPGKRLEWVATITSGGSYIYYLDSVKGRFTISRENAKSTLYLQMNSLRTEDTALYYCARRKDGNYYYAMDYWGQGTTVTVSS VL: DIVLTQSPSSLSASVGDRVTITCRASESVDSYGNSFIHWYQQKPGQPPKLLIYRASNLESGIPARFSGSGSRTDFTLTISSLQPEDFATYYCQQSYEDPWTFGGGTKLEIKR = 1.46
• H0.1L0-Fab (Fab, V domains shown) VH: EVMLVESGGGLVKPGGSLKLSCAASGFTFTNYAMSWVRQTPEKRLEWVATITSGGSYIYYLDSVKGRFTISRDNAKSTLYLQMSSLRSEDTAIYYCARRKDGNYYYAMDYWGQGTSVTVSS VL: DIVLTQSPASLAVSLGQRATISCRASESVDSYGNSFIHWYQQKAGQPPKLLIYRASNLESGIPARFSGSGSRTDFTLTINPVEADDVATYYCQQSYEDPWTFGGGTKLEIKR = 1.09
• H5.3L2-Fab (Fab, V domains shown) VH: EVMLLQSGAEVKKPGASVKVSCKASGFTFTNYAMSWVRQAPGQRLEWVATITSGGSYIYYLDSVKGRFTISRDNAKSTLHLQMNSLRAEDTAVYYCARRKDGNYYYAMDYWGQGTTVTVSS VL: DIVLTQSPSSLSASVGDRVTITCRASESVDSYGNSFIHWYQQKPGQPPKLLIYRASNLESGIPARFSGSGSRTDFTLTISSLQPEDFATYYCQQSYEDPWTFGGGTKLEIKR = 1.22

Q: Sample H1.1L1-Fab (Fab, V domains shown) VH: EVQLVESGGGLVKPGGSLRLSCAASGFTFTNYAMSWVRQAPGQRLEWVSTITSGGSYIYYLDSVKGRFTISRDNAKSTLYLQMNSLRAEDTAVYYCARRKDGNYYYAMDYWGQGTTVTVSS VL: DIVLTQSPATLSLSPGERATLSCRASESVDSYGNSFIHWYQQKPGQPPKLLIYRASNLESGIPARFSGSGSRTDFTLTISSLEPEDFAVYYCQQSYEDPWTFGGGTKLEIKR — what was its Ratio of binding relative to H0L0-Fab?
Ans: 1.06

Q: Sample H0L0-Fab (Fab, V domains shown, also called 11H08-Fab; parental anti-DR3 molecule) VH: EVMLVESGGGLVKPGGSLKLSCAASGFTFTNYAMSWVRQTPEKRLEWVATITSGGSYIYYLDSVKGRFTISRDNAKSTLYLQMSSLRSEDTAIYNCARRKDGNYYYAMDYWGQGTSVTVSS VL: DIVLTQSPASLAVSLGQRATISCRASESVDSYGNSFIHWYQQKAGQPPKLLIYRASNLESGIPARFSGSGSRTDFTLTINPVEADDVATYYCQQSYEDPWTFGGGTKLEIKR — what was its Ratio of binding relative to H0L0-Fab?
Ans: 1

The reported numbers originate from patent US20120014950A1.
